Threshold check on pKa: at or above 7 gives 1, strictly below gives 0.

compound=O=[PH](O)CCc1ccccc1 group=0
compound=CCCOC(=O)CN(CCN(CCN(CC(=O)O)CC(=O)O)CC(=O)O)CC(=O)O group=0
compound=Cl.Fc1ccc2c(c1)N(CCCN1CCOCC1)c1cc(F)ccc1CC2 group=1
compound=CCN(C)C group=1
compound="CC(C)(C)NCC(O)COc1cccc2c1C[C@H](O)[C@H](O)C2 (stereo not given in full)" group=1
compound=CS(=O)(=O)Nc1ccc(Nc2c3ccccc3nc3c(C(N)=O)cccc23)cc1 group=0
compound=CCCOC(=O)c1ccc(OS(N)(=O)=O)cc1 group=1
compound="O=C(c1ccccc1)c1ccc2n1CCC2C(=O)O (stereo not given)" group=0
compound=FC1CCNCC1 group=1
compound=Cl.Fc1ccc2c(c1)N(CCCN1CCCCC1)c1cc(F)ccc1CC2 group=1
compound=NCC(F)F group=1
compound=Oc1ccccc1Nc1c2ccccc2nc2ccccc12 group=1
compound=COc1cc(NS(C)(=O)=O)ccc1Nc1c2ccccc2nc2c(C(=O)N(C)C)cccc12 group=0
compound=CCCCNC(=O)c1cccc2c(Nc3ccc(NS(C)(=O)=O)cc3OC)c3ccccc3nc12 group=0
compound=C/C(=N\N=C(/S)N/N=C(\S)Nc1ccccc1Cl)c1ccccn1 group=1

###

Assay Readout: pKa

compound=CCCCCCS(=O)(=O)Nc1ccc(Nc2c3ccccc3nc3ccccc23)cc1 assay_readout=pKa numeric_value=7.17
compound=CCCCS(=O)(=O)Nc1ccc(Nc2c3ccccc3nc3ccccc23)cc1 assay_readout=pKa numeric_value=7.18
compound=Clc1ccccc1Nc1c2ccccc2nc2ccccc12 assay_readout=pKa numeric_value=6.55
compound=CS(=O)(=O)Nc1ccc(Nc2c3ccccc3nc3ccccc23)cc1.Cl assay_readout=pKa numeric_value=7.19
compound=Cc1cc(C)c(N=C2NCCN2)c(Cl)c1 assay_readout=pKa numeric_value=9.59
compound=O=[N+]([O-])c1ncc[nH]1 assay_readout=pKa numeric_value=0.81
compound=Cc1nc2c(/C=C\c3ccccc3)cccn2c1C assay_readout=pKa numeric_value=7.2
compound=CCCCc1nc(Cl)c(COC)n1Cc1ccc(NC(=O)c2ccccc2S(=O)(=O)O)cc1 assay_readout=pKa numeric_value=-6.6
compound=C[C@H](CO)Nc1nc(SCc2cccc(F)c2F)nc2[nH]c(=O)sc12 assay_readout=pKa numeric_value=6.7
compound=CCn1c(=O)c2nc(-c3ccc(S(=O)(=O)NCCN(C)C)cc3)[nH]c2n(CC)c1=O assay_readout=pKa numeric_value=8
compound=CN1CCN(Cc2ccc(S(=O)(=O)c3csc(S(N)(=O)=O)c3)cc2)CC1.Cl assay_readout=pKa numeric_value=7.4
compound=CNc1ccnc(N2CCc3ccccc3C2)c1 assay_readout=pKa numeric_value=8.9
compound=Cl.NS(=O)(=O)c1cc(S(=O)(=O)c2ccc(CN3CCOCC3)cc2)cs1 assay_readout=pKa numeric_value=5.28
compound=CNc1ccc2c(Nc3ccc(NS(C)(=O)=O)cc3)c3ccccc3nc2c1 assay_readout=pKa numeric_value=9.3
compound="CN1C=CN(C2NC(C(F)(F)F)=CN2c2ccc(S(N)(=O)=O)cc2)C=C1 (stereo not drawn)" assay_readout=pKa numeric_value=7.34
compound=Cl.Fc1ccc2c(c1)N(CCCN1CCCC1)c1cc(F)ccc1CC2 assay_readout=pKa numeric_value=7.6
compound=CC1=NS(=O)(=O)c2cc(Cl)ccc2N1 assay_readout=pKa numeric_value=8.62
compound=COc1cc(NS(C)(=O)=O)ccc1Nc1c2ccccc2nc2cc(I)ccc12 assay_readout=pKa numeric_value=6.77
compound=O=S(=O)(Nc1ccc(Nc2c3ccccc3nc3ccccc23)cc1)c1ccccc1 assay_readout=pKa numeric_value=7.09
compound=CC(=O)c1ccc(Nc2c3ccccc3nc3ccccc23)cc1 assay_readout=pKa numeric_value=6.12
compound=Cc1c2ccccc2nc2c(C(O)=NCCN(C)C)cccc12 assay_readout=pKa numeric_value=4.34
compound="CN1C=CC(C2NC(C(Cl)(Cl)Cl)=CN2c2ccc(S(N)(=O)=O)cc2)C=C1 (stereo not drawn)" assay_readout=pKa numeric_value=7.89
compound="COC(=O)C(c1ccccc1)C1CCCCN1 (stereo not drawn)" assay_readout=pKa numeric_value=9.24
compound=Cc1cc(C)c(N=C2NCCN2)c(C)c1 assay_readout=pKa numeric_value=10.8
compound="CN(C)CC1C2c3ccccc3C(c3ccccc32)C1CN(C)C (stereo not drawn)" assay_readout=pKa numeric_value=9.19
compound=CNc1cccc(Nc2c3ccccc3nc3ccccc23)c1 assay_readout=pKa numeric_value=7.61
compound="CC(C)Oc1ncc(-c2nc(-c3cccc4c3OCCNC4CCCC(=O)O)no2)cc1Cl (stereo not drawn)" assay_readout=pKa numeric_value=7.98
compound=Cc1cnc(NCCc2ccccc2)c(=O)n1CC(=O)NCc1ccc(C(=N)NO)s1 assay_readout=pKa numeric_value=4.1
compound=C/C(=N\N=C(/S)N/N=C(\S)Nc1cccc(C(F)(F)F)c1)c1ccccn1 assay_readout=pKa numeric_value=6.79
compound=CS(=O)(=O)Nc1ccc(Nc2c3ccccc3nc3cnccc23)cc1 assay_readout=pKa numeric_value=5.32
compound=CS(=O)(=O)Nc1ccc(Nc2c3ccccc3nc3c([N+](=O)[O-])cccc23)cc1 assay_readout=pKa numeric_value=4.88
compound=CS(=O)(=O)Nc1ccc(Nc2c3ccccc3nc3cccnc23)cc1 assay_readout=pKa numeric_value=6.9
compound="COCC1CC(C(=O)NC[C@H]2CCCO2)CN(Cc2nc(N3CCOCC3)oc2C)C1 (stereo partly drawn)" assay_readout=pKa numeric_value=7.8

###

# pKa listing for each entry below
Assay Readout: pKa

compound=C/C(=N\N=C(/S)N/N=C(\S)Nc1cccc(Cl)c1Cl)c1ccccn1 assay_readout=pKa numeric_value=7.09
compound=Cc1cc(Nc2c3ccccc3nc3ccccc23)ccc1NS(C)(=O)=O assay_readout=pKa numeric_value=7.08
compound="BP(=O)(OC[C@H]1O[C@@H](n2cnc3c(N)nc(SC)nc32)[C@H](O)[C@@H]1O)OP(=O)(O)C(F)(F)P(=O)(O)O (stereo partly drawn)" assay_readout=pKa numeric_value=7

###

Assay Readout: pKa

compound=CN(C)CCNC1=Nc2cccc3cccc(c23)N1 numeric_value=6
compound=CC(C)(C)NC[C@H](O)COc1nsnc1N1CCOCC1 numeric_value=8.8
compound=Cc1nc2c(OCc3ccccc3)nccn2c1N numeric_value=4.6
compound="FC1CCCNC1 (stereo not drawn)" numeric_value=9.3
compound=CCOc1ccccc1Nc1c2ccccc2nc2ccccc12 numeric_value=7.85
compound=O=C(O)CCc1ccccc1 numeric_value=4.64
compound=CN(C)c1ccc(Nc2c3ccccc3nc3ccccc23)cc1 numeric_value=8.46
compound=CS(=O)(=O)Nc1ccc(Nc2c3ccccc3nc3ccncc23)cc1 numeric_value=5.73

###

Threshold check on pKa: at or above 8 gives T, strictly below gives F.

molecule=CS(=O)(=O)Nc1ccc(Nc2c3ccccc3nc3ccccc23)c(N)c1 group=F
molecule=COC(=O)Nc1ccc(Nc2c3ccccc3nc3ccccc23)cc1 group=F
molecule=Cc1cc(Br)cc(C)c1N=C1NCCN1 group=T
molecule=Cc1ccc(NS(=O)(=O)Cc2ccccc2)c(=O)n1CC(=O)NC[C@H]1CN=C(N)NC1 group=T
molecule=Cc1nc2c(/C=C/Cc3ccccc3)cccn2c1CC#N group=F
molecule="CCC(C)NCc1cccc(S(=O)(=O)c2csc(S(N)(=O)=O)c2)c1.Cl (configuration not stated)" group=F
molecule=CN(C)CCC=C1c2ccccc2C=Cc2ccccc21 group=T
molecule=Cn1ccnc1[N+](=O)[O-] group=F
molecule=Cc1ccc2c(Nc3ccc(NS(C)(=O)=O)cc3)c3ccccc3nc2c1 group=F

###

# pKa listing for each entry below
Assay Readout: pKa

compound=O=C(c1nnc(-c2ccccc2)o1)N1CC(Oc2ccc(CN3CC4(COC4)C3)cc2)C1 assay_readout=pKa numeric_value=8
compound="OCCOCCN1CCN(C(c2ccccc2)c2ccc(Cl)cc2)CC1 (centres undefined)" assay_readout=pKa numeric_value=7.75
compound=Cc1cc(=O)oc2cc(O)ccc12 assay_readout=pKa numeric_value=7.8
compound=COc1cc(NS(C)(=O)=O)ccc1Nc1c2ccccc2nc2cc(F)ccc12 assay_readout=pKa numeric_value=7.05
compound=CS(=O)(=O)Nc1ccc(Nc2c3ccccc3nc3ccc(Cl)cc23)cc1 assay_readout=pKa numeric_value=6.42
compound="CCC1(CCC(C)C)C(=O)N=C(O)NC1=O (centres undefined)" assay_readout=pKa numeric_value=7.8
compound=CN(C)C1(CCCc2ccc(C(C)(C)C)cc2)COC1 assay_readout=pKa numeric_value=7.2
compound=COc1ccc2c(Nc3ccc(NS(C)(=O)=O)cc3)c3ccccc3nc2c1 assay_readout=pKa numeric_value=7.57
compound=COC(=O)[C@H]1[C@H]2C[C@@H]3c4[nH]c5cc(OC)ccc5c4CCN3C[C@H]2C[C@@H](OC(=O)c2cc(OC)c(OC)c(OC)c2)[C@@H]1OC assay_readout=pKa numeric_value=7.25
compound="CCCC12CCC(=O)C=C1c1c(cc(OCC(=O)O)c(Cl)c1Cl)C2 (centres undefined)" assay_readout=pKa numeric_value=3.6
compound=COc1cccc(S(=O)(=O)Nc2cccn(CC(=O)NCc3ccc(C(=N)N)cc3Cl)c2=O)c1 assay_readout=pKa numeric_value=9.4
compound=Ic1ccccc1Nc1c2ccccc2nc2ccccc12 assay_readout=pKa numeric_value=6.47
compound=CNS(=O)(=O)Cc1ccc2[nH]cc(CCN(C)C)c2c1 assay_readout=pKa numeric_value=9.5
compound=CCCCCCOC(=O)c1ccc(OS(N)(=O)=O)cc1 assay_readout=pKa numeric_value=8.52
